System: Human peripheral blood mononuclear cells (PBMC)
condition summary: human, 7 days, 10 μM
endpoint label: % viability (%)
Return type: number; implicit unit %.

Examples with answers:
[[record]]
compound = "CSc1nc(Nc2cccc(Cl)c2)c2cnn(CC(Cl)c3ccccc3)c2n1 (stereo not shown)"
unit_of_measure = "%"
measurement = 70.4

[[record]]
compound = "CSc1nc(NCCc2ccccc2)c2cnn(C=Cc3ccccc3)c2n1"
unit_of_measure = "%"
measurement = 84.3

[[record]]
compound = "CSc1nc(NCCc2ccccc2)c2cnn(CC(Cl)c3ccccc3)c2n1 (stereo not shown)"
unit_of_measure = "%"
measurement = 74.9

[[record]]
compound = "CCCCNc1nc(SCC)nc2c1cnn2CC(Cl)c1ccccc1 (stereo not shown)"
unit_of_measure = "%"
measurement = 108.9

[[record]]
compound = "Fc1ccc(CNc2ncnc3c2cnn3CC(Cl)c2ccc(Cl)cc2)cc1 (stereo not shown)"
unit_of_measure = "%"
measurement = 96.8

[[record]]
compound = "ClC(Cn1ncc2c(NCc3ccccc3)ncnc21)c1ccccc1 (stereo not shown)"
unit_of_measure = "%"
measurement = 40.9


Q: Need % viability of CSc1nc(NCc2ccccc2)c2cnn(CC(Cl)c3ccccc3)c2n1 (stereo not shown) , thanks.
Result: 103.4

---

Test system: primary human CD4 T-lymphocytes
procedure text: Cell hyperproliferation in primary T cells (CFSE staining, mitotic index)
Format: cell-based
condition summary: SPPs 10 μM; compared with HU 100 μM, Imatinib 10 μM, HU+ddI or untreated control
endpoint label: anti-proliferative activity (in words)

[[record]]
compound = "CSc1nc(NCc2ccccc2)c2cnn(C=Cc3ccccc3)c2n1"
measurement = "poor activity"

[[record]]
compound = "BrC(Cn1ncc2c(N3CCCCCC3)ncnc21)c1ccccc1 (stereo not shown)"
measurement = "poor activity"

[[record]]
compound = "CSc1nc(NCc2ccc(F)cc2)c2cnn(CC(Cl)c3ccccc3)c2n1 (stereo not shown)"
measurement = "poor activity"


---

System: HIV-1 NL 4.3
procedure text: HIV-1 replication in activated T cells (PBMC, p24 Ag ELISA)
Format: cell-based
condition summary: SPPs 10 μM; compared with HU 100 μM, HU+ddI or untreated control
Description: The experimental setup described below allows us to detect direct antiviral activity of a compound. Human PBMC, obtained from healthy, normal donors, were stimulated for two days with PHA 5 μg/ml. Then cells were infected with HIV-1 NL 4.3, IL-2 was added (20 U/ml), cells were plated (10^5 cells per well in 200 μl) and drug treatment started. […] The control was left untreated. After 7 days of incubation at 37° C. supernatants were harvested and HIV-1 p24 Ag was measured by ELISA.
endpoint label: anti-HIV activity in activated T cells (in words)

[[record]]
compound = "CSc1nc(NCc2ccccc2Cl)c2cnn(CC(Cl)c3ccccc3)c2n1 (stereo not drawn) [VS1-036]"
measurement = "effective against HIV"

[[record]]
compound = "CSc1nc(Nc2cccc(Cl)c2)c2cnn(CC(Cl)c3ccc(F)cc3)c2n1 (stereo not drawn) [VS1-022]"
measurement = "effective against HIV"

[[record]]
compound = "CCSc1nc(NCc2ccccc2)c2cnn(CC(Cl)c3ccccc3)c2n1 (stereo not drawn) [VS1-020]"
measurement = "effective against HIV"


---

Tested on: HIV-1 NL 4.3
procedure text: HIV-1 replication in activated T cells (PBMC, p24 Ag ELISA)
Type: cell-based
condition summary: activated T cells; 7 days; SPPs and Imatinib 10 μM, HU 100 μM, ddI 2 μM
endpoint label: HIV activated cells (% p24 compared to not treated control)

Examples with answers:
[[record]]
molecule = "CCN(CC)c1nc(SC)nc2c1cnn2CC(Cl)c1ccccc1 (stereo not shown)"
target_under_test = "HIV-1 NL 4.3"
measurement = "59.3 ± 8.1%"

[[record]]
molecule = "CCSc1nc(NCCc2ccccc2)c2cnn(CC(Cl)c3ccccc3)c2n1 (stereo not shown)"
target_under_test = "HIV-1 NL 4.3"
measurement = "19.6 ± 12.6%"

[[record]]
molecule = "CSc1nc(NCc2ccccc2)c2cnn(C=Cc3ccccc3)c2n1"
target_under_test = "HIV-1 NL 4.3"
measurement = "89.3 ± 25.5%"


// below: HIV activated cells (% p24 compared to not treated control) requested for another molecule
Q: Need HIV activated cells (% p24 compared to not treated control) of CCSc1nc(Nc2cccc(Cl)c2)c2cnn(CC(Cl)c3ccccc3)c2n1 (stereo not shown) , thanks.
Result: 12.0 ± 9.5%

---

Test system: HIV-1 NL 4.3
procedure text: HIV-1 replication in activated T cells (PBMC, p24 Ag ELISA)
Type: cell-based
condition summary: activated T cells; 7 days; SPPs and Imatinib 10 μM, HU 100 μM, ddI 2 μM
endpoint label: HIV activated cells (% p24 compared to not treated control) (%)
Return type: number; implicit unit %.

Examples with answers:
[[record]]
compound = "CCSc1nc(NCc2ccccc2)c2cnn(CC(Cl)c3ccccc3)c2n1 (centres unmarked)"
measurement = 26.3

[[record]]
compound = "CSc1nc(NCCc2cccc(Cl)c2)c2cnn(CC(Cl)c3ccccc3)c2n1 (centres unmarked)"
measurement = 25.7

[[record]]
compound = "CSc1nc(N2CCOCC2)c2cnn(CC(Cl)c3ccccc3)c2n1 (centres unmarked)"
measurement = 34.5


Q: Need HIV activated cells (% p24 compared to not treated control) of `CSc1nc(Nc2cccc(Cl)c2)c2cnn(C=Cc3ccccc3)c2n1` , thanks.
Result: 21.0

Q: Need HIV activated cells (% p24 compared to not treated control) of CCCNc1nc(SCCN2CCOCC2)nc2c1cnn2CC(Cl)c1ccccc1 (centres unmarked) , thanks.
Result: 74.2

---

Tested on: HIV-1 NL 4.3
procedure text: HIV-1 replication in activated T cells (PBMC, p24 Ag ELISA)
Assay type: cell-based
condition summary: activated T cells; 7 days; SPPs and Imatinib 10 μM, HU 100 μM, ddI 2 μM
Label rule, in plain words: HIV activated cells (% p24 compared to not treated control) of 40% and up is Criterion met, under 40% is Criterion not met.

[[record]]
compound = "CCCCNc1nc(SC)nc2c1cnn2CC(Cl)c1ccccc1 (stereo not shown)"
group = "Criterion not met"


Q: Tell me whether HIV activated cells (% p24 compared to not treated control) is at least 40% here: CCCNc1nc(SC)nc2c1cnn2CC(Cl)c1ccccc1 (stereo not shown)
Result: Criterion not met

Q: Tell me whether HIV activated cells (% p24 compared to not treated control) is at least 40% here: `C(=Cn1ncc2c(NC3CCCCC3)ncnc21)c1ccccc1`
Result: Criterion not met

Q: Tell me whether HIV activated cells (% p24 compared to not treated control) is at least 40% here: `C(=Cn1ncc2c(NCCc3ccccc3)ncnc21)c1ccccc1`
Result: Criterion met

---

Test system: HIV-1 NL 4.3
procedure text: HIV-1 replication in activated T cells (PBMC, p24 Ag ELISA)
Type: cell-based
condition summary: activated T cells; 7 days; SPPs and Imatinib 10 μM, HU 100 μM, ddI 2 μM
endpoint label: HIV activated cells (% p24 compared to not treated control) (%)
Return type: number; implicit unit %.

[[record]]
compound = "BrC(Cn1ncc2c(N3CCCCCC3)ncnc21)c1ccccc1 (stereo not shown)"
measurement = 93.6

[[record]]
compound = "CCCCNc1ncnc2c1cnn2C=Cc1ccccc1"
measurement = 97.2

[[record]]
compound = "C(=Cn1ncc2c(NCc3ccccc3)ncnc21)c1ccccc1"
measurement = 116.4

[[record]]
compound = "CCCCNc1ncnc2c1cnn2CC(Cl)c1ccccc1 (stereo not shown)"
measurement = 11.8

[[record]]
compound = "CCCNc1nc(N(C)C)nc2c1cnn2CC(Cl)c1ccccc1 (stereo not shown)"
measurement = 36.6

[[record]]
compound = "CSc1nc(NCc2ccc(F)cc2)c2cnn(CC(Cl)c3ccccc3)c2n1 (stereo not shown)"
measurement = 63.4


Q: Need HIV activated cells (% p24 compared to not treated control) of CCCCNc1ncnc2c1cnn2CC(Br)c1ccccc1 (stereo not shown) , thanks.
Result: 100.5

Q: Need HIV activated cells (% p24 compared to not treated control) of `C(=Cn1ncc2c(N3CCOCC3)ncnc21)c1ccccc1` , thanks.
Result: 44.8

Q: Need HIV activated cells (% p24 compared to not treated control) of CCOCCNc1nc(SC)nc2c1cnn2CC(Cl)c1ccccc1 (stereo not shown) , thanks.
Result: 57.1

Q: Need HIV activated cells (% p24 compared to not treated control) of CSc1nc(NCc2ccc(Cl)cc2)c2cnn(CC(Cl)c3ccccc3)c2n1 (stereo not shown) , thanks.
Result: 49.5

---

Tested on: HIV-1 NL 4.3
procedure text: HIV-1 replication in activated T cells (PBMC, p24 Ag ELISA)
Type: cell-based
condition summary: SPPs 10 μM; compared with HU 100 μM, HU+ddI or untreated control
endpoint label: anti-HIV activity in activated T cells (in words)

[[record]]
compound = "CCCCNc1ncnc2c1cnn2C=Cc1ccccc1 [VS1-021]"
target_under_test = "HIV-1 NL 4.3"
measurement = "poor activity"

[[record]]
compound = "Fc1ccc(CNc2ncnc3c2cnn3CC(Cl)c2ccc(Cl)cc2)cc1 (centres unmarked) [VS1-029]"
target_under_test = "HIV-1 NL 4.3"
measurement = "good anti-HIV activity"

[[record]]
compound = "CSc1nc(NCCc2cccc(Cl)c2)c2cnn(CC(Cl)c3ccccc3)c2n1 (centres unmarked) [VS1-028]"
target_under_test = "HIV-1 NL 4.3"
measurement = "good anti-HIV activity"

[[record]]
compound = "BrC(Cn1ncc2c(N3CCCCCC3)ncnc21)c1ccccc1 (centres unmarked) [VS1-018]"
target_under_test = "HIV-1 NL 4.3"
measurement = "poor activity"

